STUDY SYSTEM: human TLR7 (Homo sapiens, UniProt Q9NYK1)
Construct: that the line is stably transfected with the human TLR7 gene is own knowledge of the vendor's product)
Sequence (Q9NYK1 27-1049): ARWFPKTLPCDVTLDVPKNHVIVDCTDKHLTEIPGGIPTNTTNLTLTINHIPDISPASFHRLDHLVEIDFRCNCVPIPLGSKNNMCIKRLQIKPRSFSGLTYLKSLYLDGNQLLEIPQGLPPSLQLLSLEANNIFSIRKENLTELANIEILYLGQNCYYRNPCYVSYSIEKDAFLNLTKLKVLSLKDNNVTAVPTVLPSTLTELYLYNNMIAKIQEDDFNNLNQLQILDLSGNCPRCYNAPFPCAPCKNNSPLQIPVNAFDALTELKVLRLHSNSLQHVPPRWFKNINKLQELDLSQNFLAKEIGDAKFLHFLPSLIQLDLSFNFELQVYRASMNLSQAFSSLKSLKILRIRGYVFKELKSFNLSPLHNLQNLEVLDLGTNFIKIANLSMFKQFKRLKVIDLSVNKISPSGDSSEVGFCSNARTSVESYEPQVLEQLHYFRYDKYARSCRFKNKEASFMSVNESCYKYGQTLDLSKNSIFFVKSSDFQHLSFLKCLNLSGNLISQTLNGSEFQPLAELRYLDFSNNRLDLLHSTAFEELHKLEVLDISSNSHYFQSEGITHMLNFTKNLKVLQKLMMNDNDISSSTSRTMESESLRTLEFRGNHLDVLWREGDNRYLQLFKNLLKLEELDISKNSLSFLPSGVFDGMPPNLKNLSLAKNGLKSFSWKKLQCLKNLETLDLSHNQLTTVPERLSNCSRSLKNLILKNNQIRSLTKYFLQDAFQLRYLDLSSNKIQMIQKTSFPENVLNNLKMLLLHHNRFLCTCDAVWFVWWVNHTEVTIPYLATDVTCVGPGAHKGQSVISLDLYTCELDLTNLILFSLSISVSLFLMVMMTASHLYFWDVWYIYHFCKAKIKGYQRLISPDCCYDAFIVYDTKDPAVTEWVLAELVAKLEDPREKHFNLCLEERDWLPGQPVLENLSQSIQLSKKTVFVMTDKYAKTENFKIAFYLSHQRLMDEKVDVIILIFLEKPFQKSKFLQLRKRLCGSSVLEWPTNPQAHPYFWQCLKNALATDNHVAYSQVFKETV
METHOD SUMMARY: Agonistic activity of compounds on HEK-Blue hTLR7 cells (QUANTI-Blue reporter, OD620)
MEASUREMENT CONDITIONS: HEK-Blue hTLR7 cells, 20 h incubation
# class 1 = EC50 below 600 nM (exclusive); class 0 = EC50 at/above 600 nM

{"columns": ["LINE NOTATION", "CATEGORY LABEL"],
 "data": [
  ["CCCCc1nc2c(N)nc3cc(C4CCN(C)CC4)sc3c2n1CC1CCN(CCOC)CC1", "class 0"],
  ["CCCCc1nc2c(N)nc3cc(C)sc3c2n1CCCCN", "class 1"],
  ["CCCCc1nc2c(N)nc3ccsc3c2n1CCCCN", "class 1"],
  ["COCCc1nc2c(N)nc3ccsc3c2n1CC1CCN(C)CC1", "class 1"],
  ["CCCCc1nc2c(N)nc3cc(C)sc3c2n1CC1CCNCC1", "class 1"],
  ["CCCCc1nc2c(N)nc3cc(C4CCN(C)CC4)sc3c2n1CC1CCN(C)CC1", "class 0"],
  ["CCCCc1nc2c(N)nc3cc(C)sc3c2n1CC1CCN(CCOCCOCCN)CC1", "class 0"],
  ["CCCCc1nc2c(N)nc3cc(C)sc3c2n1CC1CCN(C)CC1", "class 1"],
  ["CCCCc1nc2c(N)nc3cc(C4CCN(C)CC4)sc3c2n1CC1CCOCC1", "class 1"],
  ["CCCCc1nc2c(N)nc3cc(C)sc3c2n1CC1CCOCC1", "class 1"],
  ["CCCCc1nc2c(N)nc3cc(C4CCN(C)CC4)sc3c2n1C", "class 0"],
  ["CCCCc1nc2c(N)nc3cc(C4CCN(C)CC4)sc3c2[nH]1", "class 1"],
  ["COCCc1nc2c(N)nc3ccsc3c2n1CCCCN", "class 0"],
  ["CCCCc1nc2c(N)nc3cc(C4CCOCC4)sc3c2n1CC1CCN(C)CC1", "class 1"],
  ["CCCCc1nc2c(N)nc3cc(C4CCNCC4)sc3c2n1CC1CCOCC1", "class 1"],
  ["CCCCc1nc2c(N)nc3cc(C4CCNCC4)sc3c2n1CC1CCN(CCOC)CC1", "class 0"],
  ["CCCCc1nc2c(N)nc3cc(C4CCN(C(C)=O)CC4)sc3c2n1CC1CCOCC1", "class 1"],
  ["COCCc1nc2c(N)nc3ccsc3c2n1CC1CCNCC1", "class 0"],
  ["CCCCc1nc2c(N)nc3cc(C4=CCN(C)CC4)sc3c2[nH]1", "class 0"]
]}
